assayExplanation: Particle size distribution and specific surface area (LS 200, Small Volume Module, Fraunhofer optical model)
Type: physicochemical
conditionDetails: 50% of volume below this size
Each entry below carries its recorded Particle size, % < 50.

compound: O=C([O-])CCNC(=O)c1ccc(/N=N/c2ccc(O)c(C(=O)[O-])c2)cc1.[Na+].[Na+] [Sample 1]
Particle size, % < 50: 5.584 μm
--
compound: O=C([O-])CCNC(=O)c1ccc(/N=N/c2ccc(O)c(C(=O)[O-])c2)cc1.[Na+].[Na+] [Sample 4]
Particle size, % < 50: 17.82 μm
--
compound: O=C([O-])CCNC(=O)c1ccc(/N=N/c2ccc(O)c(C(=O)[O-])c2)cc1.[Na+].[Na+] [Sample 3]
Particle size, % < 50: 6.679 μm
--
compound: O=C([O-])CCNC(=O)c1ccc(/N=N/c2ccc(O)c(C(=O)[O-])c2)cc1.[Na+].[Na+] [Sample 2]
Particle size, % < 50: 5.044 μm
--
compound: O=C(O)CCNC(=O)c1ccc(/N=N/c2ccc(O)c(C(=O)O)c2)cc1
Particle size, % < 50: 8.031 μm
